Each entry below carries its reported protein stability index.
B1: INTS4 (parent)
chain: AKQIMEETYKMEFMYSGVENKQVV

- Variants of: B1
- ASSAY OVERVIEW: protein stability index of a GFP-peptide fusion (GPS, HEK-293T) (PSI 1-6); higher = more stable;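 note: lentivirally expressed fusions sorted by FACS into six bins by GFP to DsRed ratio, PSI derived from sequencing read proportions per bin multiplied by bin number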
- CONDITION PARAMETERS: c terminus: a fixed tail appended
OBSERVED PROPERTY: protein stability index

- VARIANT ANNOTATION: "A1K"
  MEASURED: 2.68
- VARIANT ANNOTATION: "N20F"
  MEASURED: 2.86
- VARIANT ANNOTATION: "V24A"
  MEASURED: 1.75
- VARIANT ANNOTATION: "V18P"
  MEASURED: 2.5
- VARIANT ANNOTATION: "V24P"
  MEASURED: 2.54
- VARIANT ANNOTATION: "E7V"
  MEASURED: 2.97
- VARIANT ANNOTATION: "A1E"
  MEASURED: 3.37
- VARIANT ANNOTATION: "I4P"
  MEASURED: 3.39
- VARIANT ANNOTATION: "M14P"
  MEASURED: 3.88
- VARIANT ANNOTATION: "K2W"
  MEASURED: 3.22
- VARIANT ANNOTATION: "K10H"
  MEASURED: 1.25
- VARIANT ANNOTATION: "Y15L"
  MEASURED: 3.19
- VARIANT ANNOTATION: "V18M"
  MEASURED: 1.75
